Test system: MCF7
Experiment: Cytotoxicity against Homo sapiens (human) MCF7 cells assessed as growth inhibition at 10 uM after 48 hr by coulter counter analysis
Format: functional
Conditions: MCF7, 48 h, read-out: GI
Respond with True for inhibition of growth at 10 µM values of 30% and above, False for values below.

{"SMILES_STRING": "COc1ccc(-n2c(S)nnc2CSc2nc3ccccc3c(=O)n2CCc2ccccc2)cc1", "LABEL": "False"}
{"SMILES_STRING": "O=c1c2ccccc2nc(SCCN2CCOCC2)n1CCc1ccccc1", "LABEL": "False"}
{"SMILES_STRING": "CCn1c(S)nnc1CSc1nc2ccccc2c(=O)n1CCc1ccccc1", "LABEL": "False"}
{"SMILES_STRING": "O=C1c2ccccc2C(=O)N1CCCSc1nc2ccccc2c(=O)n1CCc1ccccc1", "LABEL": "False"}
{"SMILES_STRING": "O=C(CSc1nc2ccccc2c(=O)n1CCc1ccccc1)c1ccc(F)cc1", "LABEL": "False"}
{"SMILES_STRING": "O=c1c2ccccc2nc(SCCN2CCCCC2)n1CCc1ccccc1", "LABEL": "True"}
{"SMILES_STRING": "O=c1c2ccccc2nc(SCc2ccc([N+](=O)[O-])cc2)n1CCc1ccccc1", "LABEL": "False"}
{"SMILES_STRING": "O=c1c2ccccc2nc(SCc2nnc(S)n2-c2ccccc2)n1CCc1ccccc1", "LABEL": "False"}
{"SMILES_STRING": "O=C(CSc1nc2ccccc2c(=O)n1CCc1ccccc1)c1ccccc1", "LABEL": "False"}
{"SMILES_STRING": "O=c1c2ccccc2[nH]c(=S)n1CCc1ccccc1", "LABEL": "True"}

Given `O=c1c2ccccc2nc(SCc2nnc(S)n2Cc2ccccc2)n1CCc1ccccc1` , state whether its inhibition of growth at 10 µM is at least 30%. False

Given `CSc1nc2ccccc2c(=O)n1CCc1ccccc1` , state whether its inhibition of growth at 10 µM is at least 30%. True
